All values here come from patent US20220184071A1.

Assay: Pharmacokinetics in infected mice (plasma, kidney, thigh; PopPK)
Format: in vivo, mouse
Conditions: male, CD-1, mouse, subcutaneous; PopPK final parameter estimate, plasma; read-out: volume of distribution
PROPERTY_NAME: Vd (L)
The answer is to be given in L; state only the numeric part.

Query: Field request: Vd | item: `O=c1ccc2ncc(=O)n3c2n1C[C@H]3CN1CCC(NCc2cc3c(cn2)OCCC3)CC1`
Response: 0.151

---

Assay: Plasma and urine pharmacokinetics, phase IIa study in women with acute uUTI
Type: in vivo, human
Settings: female, human, plasma, oral, 1500 mg, plasma; Days 1 and 4; read-out: median Tmax values
PROPERTY_NAME: Tmax

Query: Field request: Tmax | item: `O=c1ccc2ncc(=O)n3c2n1C[C@H]3CN1CCC(NCc2cc3c(cn2)OCCC3)CC1`
Response: 1.5 to 1.92 h

---

Assay: Plasma and urine pharmacokinetics, phase IIa study in women with acute uUTI
Format: in vivo, human
Settings: female, human, plasma, oral, 1500 mg, Day 1; read-out: Plasma AUC(0-T), Geometric Mean (% CVb)
PROPERTY_NAME: AUC(0-t) (ng·h/mL)
The answer is to be given in ng·h/mL; state only the numeric part.

Query: Field request: AUC(0-t) | item: `O=c1ccc2ncc(=O)n3c2n1C[C@H]3CN1CCC(NCc2cc3c(cn2)OCCC3)CC1`
Response: 20200

---

Experiment: Plasma and urine pharmacokinetics, phase IIa study in women with acute uUTI
Assay type: in vivo, human
Conditions: female, human, plasma, oral, 1500 mg; read-out: effective elimination half-life (converted)
PROPERTY_NAME: half-life (h)
The answer is to be given in h; state only the numeric part.

Query: Field request: half-life | item: `O=c1ccc2ncc(=O)n3c2n1C[C@H]3CN1CCC(NCc2cc3c(cn2)OCCC3)CC1`
Response: 6.6

---

Experiment: Plasma and urine pharmacokinetics, phase IIa study in women with acute uUTI
Type: in vivo, human
Settings: female, human, urine, oral, 1500 mg; read-out: Steady-state urine exposures (AUC[0-24]) exceeded free plasma exposures by
PROPERTY_NAME: Kp

Query: Field request: Kp | item: `O=c1ccc2ncc(=O)n3c2n1C[C@H]3CN1CCC(NCc2cc3c(cn2)OCCC3)CC1`
Response: ~300

---

MIC90: recorded values
System: all the gram-negative anaerobe organisms combined
Experiment: MIC by CLSI agar dilution, Example 6 Method 1
Format: cell-based
Conditions: all gram-negative anaerobes combined; read-out: overall MIC90
Experimental: Antimicrobial activity was determined by agar dilution using the Clinical and Laboratory Standards Institute (CLSI) recommended procedure. The compounds were tested in serial two-fold dilutions and the minimum inhibitory concentration (MIC) was determined as the lowest concentration of the compound that inhibited visible growth. […]
The answer is to be given in µg/mL; state only the numeric part.

Query: Recall the recorded MIC90 for C[C@@H](O)[C@H]1C(=O)N2C(C(=O)O)=C(SCCN=CN)C[C@H]12 [imipenem] with all the gram-negative anaerobe organisms combined and state it.
Response: 0.5

Query: Recall the recorded MIC90 for COc1c(N2C[C@@H]3CCCN[C@@H]3C2)c(F)cc2c(=O)c(C(=O)O)cn(C3CC3)c12 [moxifloxacin] with all the gram-negative anaerobe organisms combined and state it.
Response: 8

Query: Recall the recorded MIC90 for CO/N=C(\C(=O)N[C@@H]1C(=O)N2C(C(=O)O)=C(CSc3nc(=O)c(=O)[nH]n3C)CS[C@H]12)c1csc(N)n1 [ceftriaxone] with all the gram-negative anaerobe organisms combined and state it.
Response: 512

Query: Recall the recorded MIC90 for Cc1ncc([N+](=O)[O-])n1CCO [metronidazole] with all the gram-negative anaerobe organisms combined and state it.
Response: 2

Now look at this one.
Query: Recall the recorded MIC90 for O=c1ccc2ncc(=O)n3c2n1C[C@H]3CN1CCC(NCc2cc3c(cn2)OCCC3)CC1 [gepotidacin] with all the gram-negative anaerobe organisms combined and state it.
Response: 4
